# credit: the supplement of paper PMC10567573

B1: BCL2L13 (parent)
chain: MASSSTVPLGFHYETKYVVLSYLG

- Variants of: B1
- run-description: protein stability index of a GFP-peptide fusion (GPS, HEK-293T) (PSI 1-6); higher = more stable;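 further: lentivirally expressed fusions sorted by FACS into six bins by GFP to DsRed ratio, PSI derived from sequencing read proportions per bin multiplied by bin number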
- reported-conditions: c terminus: a fixed tail appended
property-measured: protein stability index
Respond with the number and no other words.

# mutation-name, protein stability index
records = [
    ("K16V", 2.53),
    ("K16Q", 2.6),
    ("G24E", 2.05),
]

Entry under review: E14W . Reported protein stability index? 3.62

Suppose we examine the variant V7F ; what protein stability index value has been reported? 2.17

May I ask what protein stability index has been recorded for M1C ? 2.59
